# Assay Comment: Antagonist activity at rat urotensin receptor in Sprague-Dawley rat thoracic aorta assessed as inhibition of urotensin-mediated contraction
# Assay type: functional
Metric: Kb (nM)
Quick reminder: number only, in nM, skip the unit.

Answered examples (4):
Compound | Readout Value
COc1ccc(S(=O)(=O)N2CCN(C(=O)Cn3c(=O)oc4ccc(Cl)cc43)C(CN3CCCC3)C2)c(Br)c1OC (stereo not given) | 14.2
O=C(Cn1c(=O)oc2ccc(Cl)cc21)N1CCN(S(=O)(=O)c2ccccc2Br)CC1CN1CCCC1 (stereo not given) | 52.8
O=C(O)c1ccc(S(=O)(=O)N2CCN(C(=O)Cn3c(=O)oc4ccc(Cl)cc43)C(CN3CCCC3)C2)cc1O (stereo not given) | 10
O=C(O)c1ccc(S(=O)(=O)N2CCN(C(=O)Cn3c(=O)oc4ccc(Cl)cc43)C(CN3CCCC3)C2)cc1 (stereo not given) | 81.8

We next turn to a different compound, shown below.
Any idea what Kb was measured for CC(=O)Nc1ccc(S(=O)(=O)N2CCN(C(=O)Cn3c(=O)oc4ccc(Cl)cc43)C(CN3CCCC3)C2)cc1 (stereo not given) ?
13.1

---

# Assay System: UniProt:P41145
# Sequence (P41145 whole entry): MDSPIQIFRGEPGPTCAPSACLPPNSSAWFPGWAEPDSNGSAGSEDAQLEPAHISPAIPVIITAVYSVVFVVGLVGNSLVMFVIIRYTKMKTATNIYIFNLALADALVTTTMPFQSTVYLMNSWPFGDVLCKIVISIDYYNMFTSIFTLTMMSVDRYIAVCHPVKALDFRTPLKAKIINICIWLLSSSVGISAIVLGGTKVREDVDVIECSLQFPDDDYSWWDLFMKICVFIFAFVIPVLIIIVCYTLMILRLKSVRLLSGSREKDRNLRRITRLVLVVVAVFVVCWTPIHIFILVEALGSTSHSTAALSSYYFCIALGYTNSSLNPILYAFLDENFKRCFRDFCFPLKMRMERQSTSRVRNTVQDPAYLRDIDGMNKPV
# Assay Comment: Agonist activity at human kappa opioid receptor expressed in CHO-K1 cells by [35S]GTPgamma binding assay
The entries below are paired with their reported EC50.
Quick reminder: number only, in nM, skip the unit.

Answered examples (8):
Molecule | EC50 (nM)
CN(CC(=O)N1CCN(C(=O)Nc2ccccc2)CC1CN1CCCC1)c1ccc(Cl)c(Cl)c1 (centres undefined) | 4000
COc1ccc(S(=O)(=O)N2CCN(C(=O)Cn3c(=O)oc4ccc(Cl)cc43)C(CN3CCCC3)C2)c(Br)c1OC (centres undefined) | 1300
COc1ccc(S(=O)(=O)N2CCN(C(=O)Cn3c(=O)oc4ccc(Cl)cc43)C(CN3CCCC3)C2)cc1 (centres undefined) | 2000
CN(CC(=O)N1CCN(C(=O)c2ccc(C#N)cc2)CC1CN1CCCC1)c1ccc(Cl)c(Cl)c1 (centres undefined) | 3200
O=C(Cn1c(=O)oc2ccccc21)N1CCN(S(=O)(=O)c2ccccc2)CC1CN1CCCC1 (centres undefined) | 1000
CN(CC(=O)N1CCN(c2ccc(F)c(F)c2)CC1CN1CCCC1)c1ccc(Cl)c(Cl)c1 (centres undefined) | 6.3
CN(CC(=O)N1CCCCC1CN1CCCC1)c1ccc(Cl)c(Cl)c1 (centres undefined) | 3
O=C(O)c1ccc(S(=O)(=O)N2CCN(C(=O)Cn3c(=O)oc4ccc(Cl)cc43)C(CN3CCCC3)C2)cc1 (centres undefined) | 2000

We next turn to a different molecule, shown below.
Any idea what EC50 was measured for O=C(Cn1c(=O)oc2ccc(Cl)cc21)N1CCN(S(=O)(=O)c2ccccc2Br)CC1CN1CCCC1 (centres undefined) ?
2000

---

# Assay Comment: Displacement of [125I]hU-2 from rat recombinant urotensin receptor expressed in HEK293 cells
# Assay type: cell-based
Metric: pKi
Interpret pKi as the negative base-10 log of the concentration measured in mol/L.

Molecule | pKi
COc1ccc(S(=O)(=O)N2CCN(C(=O)Cn3c(=O)oc4ccc(Cl)cc43)C(CN3CCCC3)C2)c(Br)c1OC (centres undefined) | 8.00
O=C(O)c1ccc(S(=O)(=O)N2CCN(C(=O)Cn3c(=O)oc4ccc(Cl)cc43)C(CN3CCCC3)C2)cc1 (centres undefined) | 7.49
O=C(O)c1ccc(S(=O)(=O)N2CCN(C(=O)Cn3c(=O)oc4ccc(Cl)cc43)C(CN3CCCC3)C2)cc1O (centres undefined) | 8.10

We next turn to a different molecule, shown below.
Any idea what pKi was measured for CC(=O)Nc1ccc(S(=O)(=O)N2CCN(C(=O)Cn3c(=O)oc4ccc(Cl)cc43)C(CN3CCCC3)C2)cc1 (centres undefined) ?
8.40
